# Test system: S180 ascites
# assay_details: Anti-tumor evaluation: % increase in life span (% ILS) and survivors, S180 ascites in female CFW Swiss mice
# Assay type: in vivo
# stated_conditions: dose 5 mg/kg
Some compounds, each annotated with its measured % ILS.
Give the value, in units of %, as a plain number.

Cc1cc2c(cc1C)[NH][Pd]([S]C#N)([S]C#N)[NH]2 [Ex. 6]
-1
[I][Pd]1([I])[NH]C2CCCCC2[NH]1 (stereo not shown) [Comp. Ex. M]
-4
N#C[S-].N#C[S-].NCC(=O)CN.[Pd+2] [Comp. Ex. E]
3
C[NH+]1CC[NH+](C)[Pd-2]1([S]C#N)[S]C#N (stereo not shown) [Ex. 4]
-2
NCCN.[I-].[I-].[Pd+2] [Comp. Ex. L, Diiodo(ethylenediamine)palladium(II)]
-17
N#C[S][Pd][S]C#N.NC1CCCCC1N (stereo not shown) [Ex. 3]
0

Query compound follows.
Q: Which % ILS reading was recorded for the compound CC1C[NH][Pd]([S]C#N)([S]C#N)[NH]1 (stereo not shown) [Ex. 2] ?
A: 16
